Please respond with reported fractional viability for every item in the list.
Test system: TYKNU
Assay: fractional viability relative to vehicle; higher = less growth inhibition
Conditions: 10uM; 72 h; genotype: OPA1 knockout (sgOPA1 #2)
Structures can show the parent of a compound that is named as a salt. The full ranking holds about 2,000 compounds; the median of “fractional viability relative to vehicle” is about 0.92, and the lowest 2% start at about 0.11. Shown is part of a subset that was picked to be rich in the lowest values.

Consider the reported fractional viability for these compounds:
CC(C)[C@H](N)C(=O)OCC(CO)OCn1cnc2c(=O)[nH]c(N)nc21 (some centres undefined) [Valganciclovir HCl]	0.832
CCN(CC)CCCC(C)Nc1c2ccc(Cl)cc2nc2ccc(OC)cc12 (centres undefined) [Quinacrine 2HCl]	0.105
COc1ccc(C2=N[C@H](c3ccc(Cl)cc3)[C@H](c3ccc(Cl)cc3)N2C(=O)N2CCNC(=O)C2)c(OC(C)C)c1	0.737

Turning now to a further compound:
# value of fractional viability, TYKNU, item "Cc1nc(-c2cccnc2)sc1C(=O)Nc1ccccc1-c1cn2c(CN3CCOCC3)csc2n1" = 0.855

---

System: TYKNU
Experiment: fractional viability relative to vehicle; higher = less growth inhibition
Conditions: 10uM; 72 h; genotype: OPA1 knockout (sgOPA1 #2)
In all, about 2,000 compounds were measured (“fractional viability relative to vehicle”: median about 0.92, lowest 2% from about 0.11 on). The sample holds the lowest values, similar compounds and a random draw of the others, so the mix is not that of the screen.
metric name: fractional viability
Numbers only.

COc1ccc(-c2nc(N3CCOCC3)c3sc(CN(C)c4ncc(C(=O)NO)cn4)cc3n2)cn1	0.115
Cc1c(CN2CCN(C(=O)[C@H](C)O)CC2)sc2c(N3CCOCC3)nc(-c3cnc(N)nc3)nc12	0.376
Cn1sc(=O)n(Cc2ccccc2)c1=O	0.104
CC(C)C[C@@H](C=O)NC(=O)[C@H](CC(C)C)NC(=O)[C@H](CC(C)C)NC(=O)OCc1ccccc1	0.144
CCn1c(=O)c(-c2ccc(-c3cncs3)cc2Cl)cc2cnc(Nc3ccc(N4CCN(C)CC4)cc3)nc21	0.64
COc1cccc(-n2c(=O)[nH]c3cc(Cl)n(-c4ccc(-c5cccc(OC)c5O)cc4)c3c2=O)c1	0.807

Give me fractional viability for each of these compounds, listed below.
1. O=[N+]([O-])c1ccc(Nc2nc(N3CCOCC3)nc(N3CCOCC3)n2)cc1
2. Cc1ccc(-n2sc(=O)n(Cc3ccc(F)cc3)c2=O)cc1

1: 0.934; 2: 0.457

Entry under test: "CC(C)c1nc(N(C)S(C)(=O)=O)nc(-c2ccc(F)cc2)c1/C=C/[C@@H](O)C[C@@H](O)CC(=O)O" . Its fractional viability was 1.07

---

Please respond with reported fractional viability for every item in the list.
Test system: TYKNU
Assay: fractional viability relative to vehicle; higher = less growth inhibition
Settings: 10uM; 72 h; genotype: OPA1 knockout (sgOPA1 #2)
Counter-ions that a name gives are not always drawn. Over roughly 2,000 compounds, “fractional viability relative to vehicle” has its median near 0.92; the lowest 2% begin near 0.11. The sample as a whole holds a higher share of the lowest values than the screen did.
Answers are plain numbers.

O=C(NCc1ccncc1)C12CC3CC(C1)CC(c1ccc(Cl)cc1)(C3)C2	0.861
COc1ccc(CCc2nc3cc(-c4c(C)noc4C)ccc3n2C[C@H](C)N2CCOCC2)cc1Cl	0.639

Give me fractional viability for each of these compounds, listed below.
1. COc1ccc([C@@H]2CC(=O)c3c(O)cc(O[C@@H]4O[C@H](CO)[C@@H](O)[C@H](O)[C@H]4O[C@@H]4O[C@@H](C)[C@H](O)[C@@H](O)[C@H]4O)cc3O2)cc1O [Neohesperidin]
2. C[C@H](Nc1ncnc2[nH]cnc12)c1cc2ccc(F)cc2nc1-c1ccccn1
3. CNC1CCC(N(Cc2cccc(-c3ccncc3)c2)C(=O)c2sc3ccccc3c2Cl)CC1 (configuration not stated) [Smoothened Agonist (SAG) HCl]
4. CC1(C)S[C@@H]2[C@H](NC(=O)[C@H](NC(=O)N3CCN(S(C)(=O)=O)C3=O)c3ccccc3)C(=O)N2[C@H]1C(=O)O [Mezlocillin Sodium]
5. CCC1C/C(=C\c2cccnc2)C(=O)/C(=C/c2cccnc2)C1 (configuration not stated)

1. 0.888
2. 0.836
3. 0.259
4. 0.979
5. 0.189

---

Test system: TYKNU
Assay: fractional viability relative to vehicle; higher = less growth inhibition
Conditions: 2uM; 72 h; genotype: OPA1 knockout (sgOPA1 #2)
In all, about 2,000 compounds were measured (“fractional viability relative to vehicle”: median about 0.92, lowest 2% from about 0.11 on). What follows is part of a selection rich in the lowest values, with near analogues and random picks from the rest.
metric name: fractional viability

Give me fractional viability for each of these compounds, listed below.
1. NNC(=O)c1ccncc1
2. CC1(C)S[C@@H]2[C@H](NC(=O)[C@H](NC(=O)N3CCN(S(C)(=O)=O)C3=O)c3ccccc3)C(=O)N2[C@H]1C(=O)O [Mezlocillin Sodium]
3. CCOc1nc2cccc(C(=O)O)c2n1Cc1ccc(-c2ccccc2-c2noc(=O)[nH]2)cc1
4. Cc1[nH]c(/C=C2\C(=O)Nc3ccc(S(=O)(=O)N(C)c4cccc(Cl)c4)cc32)c(C)c1C(=O)N1CCN(C)CC1

1: 1.01; 2: 0.892; 3: 0.997; 4: 1.37

Give me fractional viability for each of these compounds, listed below.
1. NC(=O)c1cnc2[nH]ccc2c1N[C@@H]1[C@@H]2CC3C[C@H]1C[C@@](O)(C3)C2
2. Cc1cc(C)cc(C(=O)NOCCCCCC(=O)NO)c1
3. O=C(O)CSc1cc(NS(=O)(=O)c2ccc(Br)cc2)c2ccccc2c1O
4. c1ccc(Cn2c(-c3ccc(OC[C@H](C4CCNCC4)n4c(-c5ccccc5)nc5ccccc54)cc3)nc3ccccc32)cc1
5. Clc1ccc(C2(c3ccc(-c4cn[nH]c4)cc3)CCNCC2)cc1
6. CC(C)(C)c1ccc(S(=O)(=O)/C=C/C#N)cc1
7. COCCOc1nc(-c2ccc(Cl)c(Cl)c2)n(-c2ccc(NC(=O)CCl)cc2)n1

0.989
0.355
0.835
1.14
1.03
0.357
1

Give me fractional viability for each of these compounds, listed below.
1. COc1nc(OCc2cccc(-c3ccccc3)c2C)ccc1CNCCNC(C)=O
2. O=C1NC(=O)/C(=C/c2ccc(-c3ccc(F)cc3O)o2)S1
3. CCOc1cn(-c2ccc(F)cc2C)nc1C(=O)Nc1ccc(Oc2ccnc3cc(OC)c(OC)cc23)c(F)c1
4. CC(=O)O/N=C1\C(=O)N(Cc2cc(Cl)ccc2Cl)c2ccc(Cl)cc21

1. 0.912
2. 0.814
3. 0.919
4. 1.06

Give me fractional viability for each of these compounds, listed below.
1. O=C(CSc1nc2c(c(=O)n1-c1ccccc1)SCC2)Nc1ccc(-c2ccccc2)cn1
2. O=C(/C=C/c1ccc2ccccc2n1)c1ccncc1

1.09
0.472

Give me fractional viability for each of these compounds, listed below.
1. COc1cc(-c2ncn(/C=C\C(=O)OC(C)C)n2)cc(C(F)(F)F)c1
2. [I-].[K+] [Potassium Iodide]

[0.22, 1.07]

---

Test system: TYKNU
Assay: fractional viability relative to vehicle; higher = less growth inhibition
Details: 2uM; 72 h; genotype: OPA1 knockout (sgOPA1 #2)
Whole data set: some 2,000 compounds, median “fractional viability relative to vehicle” near 0.92, cut for the lowest 2% near 0.11. The entries come from a sample that favours the lowest values as a whole.
metric name: fractional viability
Numbers only.

Oc1ccc(-c2nc(-c3ccc(F)cc3)c(-c3ccncc3)[nH]2)cc1	1.48
COc1ccc(-n2c(SCCCN3C(=O)c4cccc5cccc(c45)C3=O)nnc2-c2ccncc2)cc1	0.913
O=C(c1cncc(Br)c1)N1CCC(N2CCCC2)CC1	0.797
CC(CNC(=O)c1cccnc1)NC(=O)c1cccnc1 (stereo not given) [Nicaraven]	0.886

Turning now to a further molecule:
Entry under test: Nc1cccc2c1C(=O)N(C1CCC(=O)NC1=O)C2=O (stereo not given) [Pomalidomide] . Its fractional viability was 1.18

---

Test system: TYKNU
Experiment: fractional viability relative to vehicle; TYKNU is a high-grade serous ovarian cancer line; higher = less growth inhibition
Details: 2uM; 72 h; genotype: OPA1 knockout (sgOPA1 #2)
Where a name gives a salt, the structure may show the parent alone. In all, about 2,000 compounds were measured (“fractional viability relative to vehicle”: median about 0.92, lowest 2% from about 0.11 on). The sample as a whole holds a higher share of the lowest values than the screen did.
Please respond with reported fractional viability for every item in the list.
Numbers only.

CC(=O)Nc1cccc2c1c(Sc1ccc(Cl)cc1)c(C)n2CC(=O)O	0.976
Cc1nc2c(O)cccc2c(=O)[nH]1	0.925

Give me fractional viability for each of these compounds, listed below.
1. C=CC(=O)Nc1cccc(Nc2nc(Nc3ccc(NC4CN(CCF)C4)cc3OC)ncc2C(F)(F)F)c1
2. COCC(=O)NC/C=C/c1ccc2ncnc(Nc3ccc(Oc4ccc(C)nc4)c(C)c3)c2c1
3. O=C(N/N=C/c1cc(O)c(O)cc1O)c1cc2ccccc2cc1O [Dyngo-4a]

0.897
1.29
1.04

Give me fractional viability for each of these compounds, listed below.
1. Nc1cccc2c1CN(C1CCC(=O)NC1=O)C2=O (stereo unspecified) [Lenalidomide (CC-5013)]
2. CCC[C@H](N[C@H]1CCc2cc(F)cc(F)c2C1)C(=O)Nc1cn(C(C)(C)CNCC(C)(C)C)cn1
3. Cc1cc(C(O)=C2C(=O)C(=O)N(CCCN3CCOCC3)C2c2ccncc2)ccc1OCc1ccccc1 (stereo unspecified)
4. CCN1CCN(Cc2ccc(Nc3ncc(F)c(-c4cc(F)c5nc(C)n(C(C)C)c5c4)n3)nc2)CC1
5. COc1ccc(CCc2nc3cc(-c4c(C)noc4C)ccc3n2C[C@H](C)N2CCOCC2)cc1Cl

1: 1.14; 2: 0.786; 3: 0.973; 4: 0.602; 5: 0.813

Give me fractional viability for each of these compounds, listed below.
1. COc1cc2ncnc(Oc3ccc(CC(=O)Nc4cnn(C(C)C)c4)cc3)c2cc1OC
2. CN1CCN(Cc2ccc(Nc3ncc(Cl)c(Nc4ccccc4S(=O)(=O)N(C)C)n3)cc2)CC1
3. C=C1[C@H](CO)[C@@H](O)C[C@@H]1n1cnc2c(=O)[nH]c(N)nc21 [Entecavir Hydrate]
4. Oc1nc(-c2ccc(C(F)(F)F)cc2)nc2c1CSCC2
5. COc1cc(N2CCC(N)CC2)ccc1Nc1ncc(Cl)c(-c2c[nH]c3ccccc23)n1
6. O=C(c1ccc(OCCCc2c[nH]cn2)cc1)C1CC1 [Ciproxifan]
7. O=C(NCc1ccncc1)C12CC3CC(C1)CC(c1ccc(Cl)cc1)(C3)C2
8. CC[C@@H]([C@H](C)O)n1ncn(-c2ccc(N3CCN(c4ccc(OC[C@@H]5CO[C@@](Cn6cncn6)(c6ccc(F)cc6F)C5)cc4)CC3)cc2)c1=O [Posaconazole]

[0.949, 0.451, 1.01, 1.13, 0.672, 1.1, 1.06, 1.18]

Give me fractional viability for each of these compounds, listed below.
1. CCCCCCCCCCCCCCCCn1cc[n+](Cc2ccccc2)c1C
2. CC(C)NCC(O)COc1cccc2ccccc12 (stereo unspecified) [Propranolol HCl]
3. CCN(CC)CCN(Cc1ccc(-c2ccc(C(F)(F)F)cc2)cc1)C(=O)Cn1c(SCc2ccc(F)cc2)nc(=O)c2c1CCC2
4. COc1cc2ncnc(Nc3ccc(O)c(Br)c3)c2cc1OC
5. CO[C@@H](C(=O)N1Cc2[nH]nc(NC(=O)c3ccc(N4CCN(C)CC4)cc3)c2C1)c1ccccc1
6. CN1CCN(c2ccc3nc(-c4c(N)c5c(F)cccc5[nH]c4=O)[nH]c3c2)CC1 [Dovitinib (TKI258) Lactate]
7. CC(C)(C)NCC(O)COc1cccc2c1CCC(=O)N2 (stereo unspecified) [Carteolol HCl]
8. C=CC(=O)Nc1cc(Nc2nccc(-c3c[nH]c4ccccc34)n2)c(OC)cc1N(C)CCN(C)C

1: 0.363; 2: 0.809; 3: 0.76; 4: 1.37; 5: 0.964; 6: 0.815; 7: 0.973; 8: 0.542
